EXPERIMENTAL TARGET: T1, 4H797-bA
T1 chain: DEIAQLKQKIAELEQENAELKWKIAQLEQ
METHOD: two-hybrid library CCNG1;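 further: natural log of median RNA to DNA barcode read ratio; higher means stronger binding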
The label Criterion met is reserved for interaction score strictly under -0.4; Criterion not met covers values equal to or above it.

// known answers, use as guide
BINDER	ASSIGNED CLASS
DEIAQLKQKIAELEQENAELKWKIAQLEQ [4H797-bA]	Criterion not met
DKIAQLKQEIAELKQKNAELEWEIAQLEQ [4H2673-bA]	Criterion met

Ask: Please check: interaction score for DKNAQLEQEIAELKQKNAELEWEIAQLEQ [4H3185-bA] , strictly under -0.4 or not?
Reply: Criterion met

Ask: Does DEIAQLKQEIAELEQKNAELKWKNAQLEQ [4H575-bA] have interaction score strictly under -0.4?
Reply: Criterion met

Ask: Hello, I'm reviewing records and need to know if interaction score of DEIAQLEQKIAELKQENAELKWEIAQLKQ [4H346-bA] is below -0.4. Could you check?
Reply: Criterion met

Ask: Regarding DKNAQLEQKIAELEQENAELKWEIAQLKQ [4H3354-bA] , kindly confirm whether its interaction score is beneath -0.4.
Reply: Criterion met

Ask: Lab log: compare recorded interaction score with -0.4; is it strictly lower for DEIAQLKQEIAELEQKNAELEWKNAQLKQ [4H568-bA] ?
Reply: Criterion not met

The measurements presented in this section are drawn from paper PMC10397247.
